pKi values for the compounds below.
target: M2 muscarinic receptor subtype (rat heart) (Rattus norvegicus, UniProt P10980); construct: Submandibular glands and heart were isolated and placed in ice cold homogenising buffer; from tissue; host or cells: rat heart membranes; experiment: Radioligand binding assay, [3H]-N-methylscopolamine, M2; details: Receptor Binding Assay M2 pKi
Sequence (P10980 whole entry): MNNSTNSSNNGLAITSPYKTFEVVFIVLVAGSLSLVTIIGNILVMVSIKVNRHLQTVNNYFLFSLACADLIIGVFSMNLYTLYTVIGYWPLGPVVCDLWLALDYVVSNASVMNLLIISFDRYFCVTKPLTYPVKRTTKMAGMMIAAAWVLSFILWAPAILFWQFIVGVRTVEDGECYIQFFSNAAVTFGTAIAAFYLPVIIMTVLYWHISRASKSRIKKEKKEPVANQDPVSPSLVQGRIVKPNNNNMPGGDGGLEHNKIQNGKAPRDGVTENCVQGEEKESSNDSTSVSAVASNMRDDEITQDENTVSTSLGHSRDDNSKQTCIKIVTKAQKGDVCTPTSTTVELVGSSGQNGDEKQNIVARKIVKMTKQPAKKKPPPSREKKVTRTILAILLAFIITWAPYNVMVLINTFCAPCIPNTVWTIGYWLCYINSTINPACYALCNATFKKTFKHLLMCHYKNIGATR
Where a name gives a salt, the structure may show the parent alone.
// pKi is dimensionless: -log10 of concentration (M)

Worked examples follow.
>  <COMPOUND>
O=C(NC[C@H]1[C@@H]2CNC[C@@H]21)C(O)(c1ccccc1)C1CCCCCC1 (mixture of isomers)

>  <TEST_RESULT>
7.35

$$$$
>  <COMPOUND>
CN(C[C@H]1[C@@H]2CNC[C@@H]21)C(=O)C(O)(c1ccccc1)C1CCCC1 (mixture of isomers)

>  <TEST_RESULT>
8.56

$$$$
>  <COMPOUND>
O=C(NCC1C2CNCC21)C(O)(c1ccccc1)C1CCC(F)(F)C1 (mixture of isomers) [Compound 13]

>  <TEST_RESULT>
7.30

$$$$

Req: # return pKi of O=C(NCC1C2CNCC21)C(O)(c1ccccc1)C1CCC1 (stereo not shown) [Compound 9] (system: M2 muscarinic receptor subtype (rat heart) (Rattus norvegicus, UniProt P10980))
Resp: 8.02

Req: GET pKi where system = M2 muscarinic receptor subtype (rat heart) (Rattus norvegicus, UniProt P10980) and item = O=C(NC[C@H]1[C@@H]2CNC[C@@H]21)C(O)(c1ccccc1)C1CCCC1 (mixture of isomers) [Compound 2, hydrochloride salt]
Resp: 8.36

Req: Give M2 muscarinic receptor subtype (rat heart) (Rattus norvegicus, UniProt P10980) pKi for the following compound: O=C(NC[C@H]1[C@@H]2CNC[C@@H]21)C(O)(c1ccccc1)C1CCCCC1 (mixture of isomers)
Resp: 7.30

Req: Provide M2 muscarinic receptor subtype (rat heart) (Rattus norvegicus, UniProt P10980) pKi reading for O=C(NCC1C2CNCC21)C(O)(c1ccccc1)C1CCC(F)C1 (mixture of isomers) .
Resp: 7.60

###

target: M3 muscarinic receptor subtype (rat submandibular gland) (Rattus norvegicus, UniProt P08483); construct: Submandibular glands and heart were isolated and placed in ice cold homogenising buffer; from tissue; host or cells: rat submandibular gland membranes; experiment: Radioligand binding assay, [3H]-N-methylscopolamine, M3; details: Receptor Binding Assay M3 Pki
Sequence (P08483 whole entry): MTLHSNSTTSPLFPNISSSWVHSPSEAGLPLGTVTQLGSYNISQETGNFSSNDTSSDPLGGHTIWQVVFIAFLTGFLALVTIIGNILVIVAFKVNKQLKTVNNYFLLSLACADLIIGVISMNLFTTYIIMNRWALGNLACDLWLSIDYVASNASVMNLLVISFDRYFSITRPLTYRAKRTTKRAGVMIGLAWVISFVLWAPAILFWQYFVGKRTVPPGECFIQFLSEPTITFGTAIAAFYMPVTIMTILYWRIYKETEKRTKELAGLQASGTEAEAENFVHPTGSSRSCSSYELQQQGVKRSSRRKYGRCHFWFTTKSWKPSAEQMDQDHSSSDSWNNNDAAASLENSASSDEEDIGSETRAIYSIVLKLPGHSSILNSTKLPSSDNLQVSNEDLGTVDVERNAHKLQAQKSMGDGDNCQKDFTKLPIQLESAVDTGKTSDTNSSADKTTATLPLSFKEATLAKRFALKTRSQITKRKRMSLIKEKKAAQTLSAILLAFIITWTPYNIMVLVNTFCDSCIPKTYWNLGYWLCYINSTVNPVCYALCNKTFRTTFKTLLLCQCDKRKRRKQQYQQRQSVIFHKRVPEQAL
Structures can show the parent of a compound that is named as a salt.
METRIC: pKi
# pKi is unitless: minus log10 of the molar concentration; print number only

Req: Input O=C(NCC1C2CNCC21)C(O)(c1ccccc1)C1CCC(F)(F)C1 (mixture of isomers) [Compound 13] , output reported pKi.
Resp: 8.70

Req: Please give the documented pKi of O=C(NCC1C2CNCC21)C(O)(c1ccccc1)C1CCC1 (stereo not drawn) [Compound 9]
Resp: 8.90

Req: Read off the recorded pKi for O=C(NC[C@H]1[C@@H]2CNC[C@@H]21)C(O)(c1ccccc1)C1CCCC1 (mixture of isomers) [Compound 2, hydrochloride salt]
Resp: 9.50

Req: Return the recorded pKi value; entry: O=C(NCC1C2CNCC21)C(O)(c1ccccc1)C1CCC(F)C1 (mixture of isomers) [Compound 12]
Resp: 9.04

Req: Provide one value: measured pKi of O=C(NC[C@H]1[C@@H]2CNC[C@@H]21)[C@@](O)(c1ccccc1)C1CCCC1 [Compound 6, hydrochloride salt]
Resp: 7.88

Req: Supply measured pKi of O=C(NC[C@H]1[C@@H]2CNC[C@@H]21)C(O)(c1ccccc1)C1CCCC1 (mixture of isomers) [Compound 1] in your reply.
Resp: 9.28

###

target: M2 muscarinic receptor subtype (rat heart) (Rattus norvegicus); construct: Submandibular glands and heart were isolated and placed in ice cold homogenising buffer; from tissue; host or cells: rat heart membranes; test: Radioligand binding assay, [3H]-N-methylscopolamine, M2; details: Receptor Binding Assay M2 pKi
METRIC: pKi
Formally, pKi is defined as -log10 of the concentration c, with c in mol/L.

>  <COMPOUND>
O=C(NC[C@H]1[C@@H]2CNC[C@@H]21)C(O)(c1ccccc1)C1CCCC1 (mixture of isomers) [Compound 1]

>  <pKi>
7.92

$$$$

Please turn your attention to the following entry.
Req: Dear colleague, please send me the reported pKi for O=C(NCC1C2CNCC21)C(O)(c1ccccc1)C1CCC(F)(F)C1 (mixture of isomers) [Compound 14] when you can.
Resp: 7.14

###

molecular target: M3 muscarinic receptor subtype (rat submandibular gland) (Rattus norvegicus, UniProt P08483); construct: Submandibular glands and heart were isolated and placed in ice cold homogenising buffer; from tissue; host or cells: rat submandibular gland membranes; assay: Radioligand binding assay, [3H]-N-methylscopolamine, M3; settings: Receptor Binding Assay M3 Pki
Structures can show the parent of a compound that is named as a salt.
Could you mark each record True if its Ki falls strictly under 1 nM, and False if it equals or exceeds it?

>  <COMPOUND>
O=C(NC[C@H]1[C@@H]2CNC[C@@H]21)[C@@](O)(c1ccccc1)C1CCCC1 [Compound 5]

>  <GROUP>
False

$$$$
>  <COMPOUND>
CN(C[C@H]1[C@@H]2CNC[C@@H]21)C(=O)C(O)(c1ccccc1)C1CCCC1 (mixture of isomers)

>  <GROUP>
True

$$$$

Req: Quick check: Ki of O=C(NC[C@H]1[C@@H]2CNC[C@@H]21)[C@](O)(c1ccccc1)C1CCCC1 [Compound 4, hydrochloride salt] under 1 nM?
Resp: True

Req: Dear reviewer, please state whether O=C(NC[C@H]1[C@@H]2CNC[C@@H]21)C(O)(c1ccccc1)C1CCCCCC1 (mixture of isomers) has Ki strictly beneath 1 nM.
Resp: False

Req: Would you kindly verify if Ki of O=C(NCC1C2CNCC21)C(O)(c1ccccc1)C1CCC1 (centres unmarked) [Compound 10] is strictly less than 1 nM?
Resp: True

Req: Item O=C(NC[C@H]1[C@@H]2CNC[C@@H]21)[C@](O)(c1ccccc1)C1CCC(F)(F)C1 (single isomer, unassigned) : Ki beneath 1 nM, strictly?
Resp: False

Req: Determine whether this compound shows Ki lower than 1 nM (ties excluded): O=C(NCC1C2CNCC21)C(O)(c1ccccc1)C1CCC(F)(F)C1 (mixture of isomers) [Compound 14]
Resp: False

Req: Input O=C(NC[C@H]1[C@@H]2CNC[C@@H]21)C(O)(c1ccccc1)C1CCCCC1 (mixture of isomers) ; condition: Ki strictly below 1 nM. Does it hold?
Resp: False

###

target: M2 muscarinic receptor subtype (rat heart) (Rattus norvegicus, UniProt P10980); construct: Submandibular glands and heart were isolated and placed in ice cold homogenising buffer; from tissue; host or cells: rat heart membranes; assay: Radioligand binding assay, [3H]-N-methylscopolamine, M2; details: Receptor Binding Assay M2 pKi, [3H]-N-methylscopolamine, rat heart membranes
METRIC: Ki (nM)
Output spec: scalar in nM, unitless text.

>  <SMILES_TEXT>
O=C(NC[C@H]1[C@@H]2CNC[C@@H]21)C(O)(c1ccccc1)c1ccccc1

>  <TARGET>
M2 muscarinic receptor subtype (rat heart) (Rattus norvegicus, UniProt P10980)

>  <Ki [nM]>
11.2

$$$$

Req: Given the compound O=C(OC[C@H]1[C@@H]2CNC[C@@H]21)C(O)(c1ccccc1)c1ccccc1 , write its reported Ki.
Resp: 0.219

###

# key: entry, value: pKi
target: M3 muscarinic receptor subtype (rat submandibular gland) (Rattus norvegicus); construct: Submandibular glands and heart were isolated and placed in ice cold homogenising buffer; from tissue; host or cells: rat submandibular gland membranes; experiment: Radioligand binding assay, [3H]-N-methylscopolamine, M3; settings: Receptor Binding Assay M3 Pki, [3H]-N-methylscopolamine, rat submandibular gland membranes
In plain terms, pKi is the concentration in mol/L turned into minus its base-10 logarithm.

>  <SMILES_TEXT>
O=C(OC[C@H]1[C@@H]2CNC[C@@H]21)C(O)(c1ccccc1)c1ccccc1

>  <pKi>
10.18

$$$$

Could you now look at the following molecule, please?
Req: // fetch pKi given entry O=C(NC[C@H]1[C@@H]2CNC[C@@H]21)C(O)(c1ccccc1)c1ccccc1
Resp: 9.41

###

Known pKi of a selection of compounds
target: M2 muscarinic receptor subtype (rat heart) (Rattus norvegicus); construct: Submandibular glands and heart were isolated and placed in ice cold homogenising buffer; from tissue; host or cells: rat heart membranes; assay: Radioligand binding assay, [3H]-N-methylscopolamine, M2; conditions: Receptor Binding Assay M2 pKi
Counter-ions that a name gives are not always drawn.
FYI, pKi means -log10 of a concentration in mol per litre.

In the examples that follow, each entry is paired with its recorded pKi.
>  <COMPOUND>
O=C(NC[C@H]1[C@@H]2CNC[C@@H]21)[C@@](O)(c1ccccc1)C1CCCC1 [Compound 6, hydrochloride salt]

>  <METRIC>
pKi

>  <TEST_RESULT>
7.11

$$$$
>  <COMPOUND>
O=C(NC[C@H]1[C@@H]2CNC[C@@H]21)[C@@](O)(c1ccccc1)C1CCCC1 [Compound 5]

>  <METRIC>
pKi

>  <TEST_RESULT>
6.80

$$$$
>  <COMPOUND>
O=C(NC[C@H]1[C@@H]2CNC[C@@H]21)[C@](O)(c1ccccc1)C1CCC(F)(F)C1 (single isomer, unassigned)

>  <METRIC>
pKi

>  <TEST_RESULT>
7.40

$$$$
>  <COMPOUND>
O=C(NC[C@H]1[C@@H]2CNC[C@@H]21)[C@](O)(c1ccccc1)C1CCCC1 [Compound 4, hydrochloride salt]

>  <METRIC>
pKi

>  <TEST_RESULT>
8.43

$$$$

Now for the compound whose pKi we want.
Req: Entry O=C(NCC1C2CNCC21)C(O)(c1ccccc1)C1CCC1 (centres unmarked) [Compound 10] needs its pKi filled in; supply it.
Resp: 8.20
